Catalogue of Ki(app) readings, one per entry.
Molecular target: specific ANP receptor sites on BASM or BAE cells (Bos taurus, UniProt P10730)
Construct: specific receptor sites on BASM or BAE cells; endogenous in cells; host or cells: cultured BASM and BAE cells
Sequence (P10730 42-537): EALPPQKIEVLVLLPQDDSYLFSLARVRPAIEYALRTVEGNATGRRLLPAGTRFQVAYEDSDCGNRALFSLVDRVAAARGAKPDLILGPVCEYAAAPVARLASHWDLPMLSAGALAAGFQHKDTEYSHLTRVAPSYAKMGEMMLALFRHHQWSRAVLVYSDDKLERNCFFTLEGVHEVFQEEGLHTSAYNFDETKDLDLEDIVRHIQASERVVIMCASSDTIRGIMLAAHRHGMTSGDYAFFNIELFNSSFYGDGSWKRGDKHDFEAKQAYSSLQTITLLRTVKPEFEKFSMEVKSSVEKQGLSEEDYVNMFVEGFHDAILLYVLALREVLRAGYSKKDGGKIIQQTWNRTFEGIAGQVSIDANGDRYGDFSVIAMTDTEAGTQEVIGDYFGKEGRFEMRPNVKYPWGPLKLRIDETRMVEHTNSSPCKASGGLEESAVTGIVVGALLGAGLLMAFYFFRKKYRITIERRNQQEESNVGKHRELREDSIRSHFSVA
Test: Competitive displacement receptor binding of (125I)-rANP(126-150) on cultured cells
Set-up: species or system bovine
Conditions: concentration of unlabeled peptide displacing 50% of maximal binding of 0.5 nM (125I)-rANP(126-150); BASM or BAE cells
Where a SMILES comes first, the peptide text is derived from it. The star is where a group is joined. Acetyl(2-naphthyl) = O=C(Cc1ccc2ccccc2c1)*; Fmoc = O=C(OCC1c2ccccc2-c2ccccc21)*
Give just the numeric value; nM need not be written.

INSERT INTO results (compound, numeric_readout) VALUES
  ('CC[C@H](C)[C@H](NC(=O)[C@H](CCCNC(=N)N)NC(=O)[C@H](CC(=O)O)NC(=O)[C@@H](NC(=O)[C@H](CCCNC(=N)N)NC(=O)CNC(=O)CNC(=O)OCC1c2ccccc2-c2ccccc21)[C@@H](C)CC)C(N)=O [AP311, (FMOC)--G--G--R--I--D--R--I--NH2] (Fmoc-GGRIDRI-NH2)', 10.33);

Lab request: please report Ki(app) under test system specific ANP receptor sites on BASM or BAE cells (Bos taurus, UniProt P10730) for CC[C@H](C)[C@H](NC(=O)[C@H](CCCNC(=N)N)NC(=O)CNC(=O)CNC(=O)Cc1ccc2ccccc2c1)C(=O)N[C@@H](CC(=O)O)C(=O)N[C@@H](CCCNC(=N)N)C(=O)N[C@@H](CC(C)C)C(N)=O [AP332, (2-NA)--G--G--R--I--D--R--L--NH2] ({Acetyl(2-naphthyl)}-GGRIDRL-NH2) 44.2

----------
Target: specific ANP receptor sites on BASM or BAE cells (Bos taurus)
Construct: specific receptor sites on BASM or BAE cells; endogenous in cells; host or cells: cultured BASM and BAE cells
Experiment: Competitive displacement receptor binding of (125I)-rANP(126-150) on cultured cells
Parameters: species or system bovine
Settings: concentration of unlabeled peptide displacing 50% of maximal binding of 0.5 nM (125I)-rANP(126-150); BASM or BAE cells
Text: Analogous "competitive displacement" receptor binding assays are considered commonplace in the art for examining specific ligand-receptor interactions. Assuming these ANP analogs act at one or more ANP receptor sites, then increased receptor affinity should reflect increased biological potency.
*1 amine or outer side, *2 acyl side, *3 side chain or, on linkers, in order; H or OH if unused. Where a SMILES comes first, the peptide text is derived from it. [ ]: non-standard residue; d: D form. The star is where a group is joined. X2 = N=C(N)NCCC[C@@H](C(=O)[*:2])N(CCc1ccc(N[*:3])cc1)[*:1]; Butyryl(4-indol-3-yl) = O=C(CCCc1c[nH]c2ccccc12)*; Acetyl(2-naphthyloxy) = O=C(COc1ccc2ccccc2c1)*; X10 = O=C(CNc1ccc(C(=O)*)cc1)c1ccc2ccccc2c1; Acetyl(2-naphthyl) = O=C(Cc1ccc2ccccc2c1)*; NH(2S-methylbutyl) = CC[C@H](C)CN*; 2Naphthoyl = O=C(c1ccc2ccccc2c1)*; X1 = O=C(Cc1ccc(N[*:1])cc1)[*:2]; Nle = CCCC[C@H](N)C(=O)O; Orn = NCCC[C@H](N)C(=O)O; βAla = NCCC(=O)O; X3 = CCC(C)CN*
Ki(app) vs 20 nM: less than gives Yes; not less than gives No.

Consider the following illustrative entries.
INSERT INTO results (compound, classification) VALUES
  ('CC[C@H](C)[C@H](NC(=O)[C@H](CCCNC(=N)N)NC(=O)[C@H](CC(=O)O)NC(=O)[C@@H](NC(=O)[C@H](CCCCN)NC(=O)Cc1ccc(NC(=O)COc2ccc3ccccc3c2)cc1)[C@@H](C)CC)C(N)=O [AP798] ({Acetyl(2-naphthyloxy)}-[X1]KIDRI-NH2)', 'Yes'),
  ('CCC(C)CNC(=O)[C@H](CCCNC(=N)N)NC(=O)[C@H](CC(=O)O)NC(=O)[C@@H](NC(=O)[C@H](CCCNC(=N)N)NC(=O)CNC(=O)CNC(=O)Cc1ccc2ccccc2c1)[C@@H](C)CC (some centres unmarked) [AP511, (2-NA)GGRIDRNHCH2CH(CH3)CH3 CH3] ({Acetyl(2-naphthyl)}-GGRIDR-X3)', 'No'),
  ('CCCC[C@H](NC(=O)CNC(=O)CNC(=O)Cc1ccc2ccccc2c1)C(=O)N[C@H](C(=O)N[C@@H](CC(=O)O)C(=O)N[C@@H](CCCNC(=N)N)C(=O)N[C@H](C(N)=O)[C@@H](C)CC)[C@@H](C)CC [AP514, (2-NA)--G--G--Nle--I--D--R--I--NH2] ({Acetyl(2-naphthyl)}-GG[Nle]IDRI-NH2)', 'No'),
  ('CC[C@H](C)[C@H](NC(=O)[C@H](CCCNC(=N)N)NC(=O)[C@H](CC(=O)O)NC(=O)[C@@H](NC(=O)[C@H](CCCNC(=N)N)NC(=O)CCNC(=O)CCCc1c[nH]c2ccccc12)[C@@H](C)CC)C(=O)NCC(=O)N[C@@H](C)C(N)=O [AP532] ({Butyryl(4-indol-3-yl)-βAla}-RIDRIGA-NH2)', 'Yes'),
  ('CC[C@H](C)[C@H](NC(=O)[C@H](CCCNC(=N)N)NC(=O)[C@H](CC(=O)O)NC(=O)[C@@H](NC(=O)[C@H](CCCNC(=N)N)NC(=O)c1ccc(NCC(=O)c2ccc3ccccc3c2)cc1)[C@@H](C)CC)C(N)=O [AP794] (X10-RIDRI-NH2)', 'Yes'),
  ('CC[C@H](C)[C@H](NC(=O)[C@H](CCCNC(=N)N)NC(=O)[C@H](CC(=O)O)NC(=O)[C@@H](NC(=O)[C@@H](CCCNC(=N)N)NC(=O)CNC(=O)CNC(=O)[C@H](Cc1ccccc1)NC(=O)[C@H](C)N)[C@@H](C)CC)C(=O)NCC(=O)N[C@@H](C)C(N)=O [AP301, A--F--G--G--R^ --I--D--R--I--G--A--NH2] (H-AFGG[dR]IDRIGA-NH2)', 'No'),
  ('CC[C@H](C)[C@H](NC(=O)[C@H](CCCNC(=N)N)NC(=O)[C@H](CC(=O)O)NC(=O)[C@@H](NC(=O)[C@H](CCCCN)NC(=O)Cc1ccc(NC(=O)c2ccc3ccccc3c2)cc1)[C@@H](C)CC)C(N)=O [AP802] (2Naphthoyl-[X1]KIDRI-NH2)', 'Yes'),
  ('CC[C@H](C)[C@H](NC(=O)[C@H](CCCNC(=N)N)NC(=O)[C@H](CC(=O)O)NC(=O)[C@@H](NC(=O)[C@H](CCCNC(=N)N)NC(=O)Cc1ccc(NC(=O)c2ccc3ccccc3c2)cc1)[C@@H](C)CC)C(N)=O [AP790] (2Naphthoyl-[X1]RIDRI-NH2)', 'Yes');

Consider the compound CC[C@H](C)[C@H](NC(=O)[C@H](CCCNC(=N)N)NC(=O)[C@H](CC(=O)O)NC(=O)[C@@H](NC(=O)[C@H](CCCNC(=N)N)NCCc1ccc(NC(=O)COc2ccc3ccccc3c2)cc1)[C@@H](C)CC)C(N)=O [AP816] (H-[X2](Acetyl(2-naphthyloxy))IDRI-NH2) . Is its Ki(app) strictly less than 20 nM? Yes

Query CC[C@H](C)[C@H](NC(=O)[C@H](CCCNC(=N)N)NC(=O)[C@H](CC(=O)O)NC(=O)[C@@H](NC(=O)[C@H](CCCN)NC(=O)Cc1ccc(NC(=O)COc2ccc3ccccc3c2)cc1)[C@@H](C)CC)C(N)=O [AP815] ({Acetyl(2-naphthyloxy)}-[X1][Orn]IDRI-NH2) next Yes

Check CC[C@H](C)CNC(=O)[C@H](CCCNC(=N)N)NC(=O)[C@H](CC(=O)O)NC(=O)[C@@H](NC(=O)[C@H](CCCNC(=N)N)NC(=O)Cc1ccc(NC(=O)COc2ccc3ccccc3c2)cc1)[C@@H](C)CC [AP813] ({Acetyl(2-naphthyloxy)}-[X1]RIDR-{NH(2S-methylbutyl)}) too. No

Would you mind doing CC[C@H](C)[C@H](NC(=O)[C@H](CCCNC(=N)N)NC(=O)[C@H](CC(=O)O)NC(=O)[C@@H](NC(=O)[C@H](CCCNC(=N)N)NC(=O)CNC(=O)CNC(=O)Cc1ccc2ccccc2c1)[C@@H](C)CC)C(=O)NCC(=O)N[C@@H](C)C(N)=O [AP306] ({Acetyl(2-naphthyl)}-GGRIDRIGA-NH2) as well? Yes

Now this one: CC[C@H](C)[C@H](NC[C@H](CCCCN)NC(=O)[C@H](CC(=O)O)NC(=O)[C@@H](NC(=O)[C@H](CCCNC(=N)N)NC(=O)Cc1ccc(NC(=O)Cc2ccc3ccccc3c2)cc1)[C@@H](C)CC)C(N)=O [AP807] No
